# STUDY_SYSTEM: recombinant human MMP-1 (Homo sapiens, UniProt P03956)
# Construct: made in house; host or cells: transfected HT-1080 cells (provided by Dr. Harold Welgus, Washington University)
# Sequence (P03956 100-469): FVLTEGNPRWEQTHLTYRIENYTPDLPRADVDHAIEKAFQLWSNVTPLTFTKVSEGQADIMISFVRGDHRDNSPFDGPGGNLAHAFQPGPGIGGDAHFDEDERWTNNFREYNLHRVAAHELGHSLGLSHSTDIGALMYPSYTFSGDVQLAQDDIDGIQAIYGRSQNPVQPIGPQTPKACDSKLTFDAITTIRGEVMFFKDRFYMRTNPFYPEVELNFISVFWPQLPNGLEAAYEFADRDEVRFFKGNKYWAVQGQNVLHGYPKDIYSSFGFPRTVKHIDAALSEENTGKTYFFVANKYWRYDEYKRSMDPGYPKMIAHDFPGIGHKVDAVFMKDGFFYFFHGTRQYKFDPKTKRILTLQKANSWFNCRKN
# PROCEDURE_DETAILS: biochemical
# CONDITION_NOTES: Inhibition Table B; read-out: MMP-1 IC50
pIC50: −log10 of the molar value. Where a name gives a salt, the structure may show the parent alone.
QUANTITY_KIND: pIC50

{"COMPOUND": "CC(=O)N1CCN(c2ccc(Oc3ccc(S(=O)(=O)C4(C(=O)NO)CCOCC4)cc3)cc2)CC1 [Example 123, Trifluoroacetic Acid Salt]", "RELATION_OPERATOR": "=", "ASSAY_VALUE": 5.44}
{"COMPOUND": "CC(=O)N1CCC(C(=O)NO)(S(=O)(=O)c2ccc(Oc3ccc4c(c3)OCO4)cc2)CC1 [Example 37, Monohydrochloride]", "RELATION_OPERATOR": "=", "ASSAY_VALUE": 6.00}
{"COMPOUND": "C#CCN1CCC(C(=O)NO)(S(=O)(=O)c2ccc(Oc3ccc(C)c(C)c3)cc2)CC1.Cl", "RELATION_OPERATOR": "=", "ASSAY_VALUE": 5.15}
{"COMPOUND": "Cl.O=C(NO)C1(S(=O)(=O)c2ccc(Oc3ccc(Cl)cc3)cc2)CCNCC1 [Example 93, Monohydrochloride]", "RELATION_OPERATOR": "=", "ASSAY_VALUE": 5.10}
{"COMPOUND": "O=C(N1CCCCC1)N1CCN(c2ccc(S(=O)(=O)C3(C(=O)NO)CCOCC3)cc2)CC1", "RELATION_OPERATOR": "<", "ASSAY_VALUE": 5.00}
{"COMPOUND": "Cc1cccc(Oc2ccc(S(=O)(=O)C3(C(=O)NO)CCOCC3)cc2)n1", "RELATION_OPERATOR": "<", "ASSAY_VALUE": 5.00}
{"COMPOUND": "O=C(NO)C1(S(=O)(=O)c2ccc(-c3cccc4ccccc34)cc2)CCOCC1", "RELATION_OPERATOR": "<", "ASSAY_VALUE": 5.00}
{"COMPOUND": "O=C(NO)C1(S(=O)(=O)c2ccc(Sc3ccc(OC(F)(F)F)cc3)cc2)CCOCC1", "RELATION_OPERATOR": "=", "ASSAY_VALUE": 5.94}
{"COMPOUND": "O=C(NO)C1(S(=O)(=O)c2ccc(Oc3ccc(F)c(F)c3)cc2)CCOCC1", "RELATION_OPERATOR": "=", "ASSAY_VALUE": 5.82}
{"COMPOUND": "O=C(NO)C1(S(=O)(=O)c2ccc(N3CCC(Oc4ccc5c(c4)OCO5)CC3)cc2)CCOCC1 [Example 63, Monohydrochloride]", "RELATION_OPERATOR": "<", "ASSAY_VALUE": 5.00}
{"COMPOUND": "O=C(NC1CCCCCC1)C1CCN(c2ccc(S(=O)(=O)C3(C(=O)NO)CCOCC3)cc2)CC1", "RELATION_OPERATOR": "=", "ASSAY_VALUE": 5.00}
{"COMPOUND": "O=C(NO)C1(S(=O)(=O)c2ccc(-c3ccc4ccccc4c3)cc2)CCOCC1", "RELATION_OPERATOR": "<", "ASSAY_VALUE": 5.00}
{"COMPOUND": "Cc1ccc(Oc2ccc(S(=O)(=O)C3(C(=O)NO)CCOCC3)cc2)cc1C", "RELATION_OPERATOR": "=", "ASSAY_VALUE": 5.30}
{"COMPOUND": "Cc1nc2cc(Oc3ccc(S(=O)(=O)C4(C(=O)NO)CCOCC4)cc3)ccc2s1", "RELATION_OPERATOR": "=", "ASSAY_VALUE": 5.92}
{"COMPOUND": "Cl.O=C(NO)C1(S(=O)(=O)c2ccc(Oc3ccc(-n4ccnc4)cc3)cc2)CCOCC1 [Example 99, Monohydrochloride]", "RELATION_OPERATOR": "<", "ASSAY_VALUE": 5.00}

* * *

# STUDY_SYSTEM: recombinant human MMP-2 (Homo sapiens, UniProt P08253)
# Sequence (P08253 110-660): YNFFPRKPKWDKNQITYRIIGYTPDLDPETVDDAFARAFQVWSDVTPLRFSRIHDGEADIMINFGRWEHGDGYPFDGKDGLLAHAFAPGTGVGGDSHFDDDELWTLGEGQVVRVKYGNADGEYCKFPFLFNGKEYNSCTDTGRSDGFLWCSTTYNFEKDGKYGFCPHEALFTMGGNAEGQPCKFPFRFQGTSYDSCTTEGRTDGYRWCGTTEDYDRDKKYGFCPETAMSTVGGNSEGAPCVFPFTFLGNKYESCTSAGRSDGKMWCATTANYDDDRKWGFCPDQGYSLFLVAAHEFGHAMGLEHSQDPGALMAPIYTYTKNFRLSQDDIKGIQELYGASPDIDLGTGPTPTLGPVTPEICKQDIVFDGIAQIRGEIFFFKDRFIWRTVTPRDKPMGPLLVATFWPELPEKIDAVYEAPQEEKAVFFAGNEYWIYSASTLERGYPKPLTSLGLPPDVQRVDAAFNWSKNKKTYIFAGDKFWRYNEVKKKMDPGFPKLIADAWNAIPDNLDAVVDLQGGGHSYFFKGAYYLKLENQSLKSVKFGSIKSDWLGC
# PROCEDURE_DETAILS: biochemical
# CONDITION_NOTES: Inhibition Table B; read-out: MMP-2 IC50
Counter-ions that a name gives are not always drawn.
Could you mark each record true if its IC50 falls strictly under 60 nM, and false if it equals or exceeds it?

{"COMPOUND": "C#CCN1CCC(C(=O)NO)(S(=O)(=O)c2ccc(Oc3cc(OC)cc(OC)c3)cc2)CC1 [Example 39, Monohydrochloride]", "STUDY_SYSTEM": "recombinant human MMP-2 (Homo sapiens, UniProt P08253)", "CAT": "false"}
{"COMPOUND": "O=C(NO)C1(S(=O)(=O)c2ccc(Oc3cc(F)cc(F)c3)cc2)CCOCC1", "STUDY_SYSTEM": "recombinant human MMP-2 (Homo sapiens, UniProt P08253)", "CAT": "true"}
{"COMPOUND": "O=C(NO)C1(S(=O)(=O)c2ccc(-c3ccccc3)cc2)CCOCC1", "STUDY_SYSTEM": "recombinant human MMP-2 (Homo sapiens, UniProt P08253)", "CAT": "true"}
{"COMPOUND": "C#CCN1CCC(C(=O)NO)(S(=O)(=O)c2ccc(Oc3cccc(C)c3)cc2)CC1 [Example 41, Monohydrochloride]", "STUDY_SYSTEM": "recombinant human MMP-2 (Homo sapiens, UniProt P08253)", "CAT": "true"}
{"COMPOUND": "O=C(NO)C1(S(=O)(=O)c2ccc(Oc3ccccc3)cc2)CCS(=O)(=O)CC1", "STUDY_SYSTEM": "recombinant human MMP-2 (Homo sapiens, UniProt P08253)", "CAT": "true"}
{"COMPOUND": "O=Cc1ccccc1-c1ccc(S(=O)(=O)C2(C(=O)NO)CCOCC2)cc1", "STUDY_SYSTEM": "recombinant human MMP-2 (Homo sapiens, UniProt P08253)", "CAT": "false"}
{"COMPOUND": "O=C(NCc1ccc(F)cc1)C1CCN(c2ccc(S(=O)(=O)C3(C(=O)NO)CCOCC3)cc2)CC1", "STUDY_SYSTEM": "recombinant human MMP-2 (Homo sapiens, UniProt P08253)", "CAT": "false"}

* * *

# STUDY_SYSTEM: recombinant human MMP-1 (Homo sapiens)
# Construct: made in house; host or cells: transfected HT-1080 cells (provided by Dr. Harold Welgus, Washington University)
# PROCEDURE_DETAILS: biochemical
# CONDITION_NOTES: Inhibition Table B; read-out: MMP-1 IC50

{"MOLECULE_SMILES": "O=C(O)CNc1ccc(Oc2ccc(S(=O)(=O)C3(C(=O)NO)CCSCC3)cc2)cc1", "IC50 / nM": 3700}
{"MOLECULE_SMILES": "O=C(NO)C1(S(=O)(=O)c2ccc(Oc3cc(F)cc(F)c3)cc2)CCOCC1", "IC50 / nM": 1500}
{"MOLECULE_SMILES": "COc1ccc(Sc2ccc(S(=O)(=O)C3(C(=O)NO)CCSCC3)cc2)cc1", "IC50 / nM": 5500}
{"MOLECULE_SMILES": "COc1ccc(Oc2ccc(S(=O)(=O)C3(C(=O)NO)CCOCC3)cc2)cc1", "IC50 / nM": 1470}

* * *

# STUDY_SYSTEM: recombinant human MMP-2 (Homo sapiens)
# PROCEDURE_DETAILS: biochemical
# CONDITION_NOTES: Inhibition Table B; read-out: MMP-2 IC50
pIC50: −log10 of the molar value. Structures can show the parent of a compound that is named as a salt.
Outcome: rule met for pIC50 of at least 9; rule not met for anything lower.

{"MOLECULE": "O=C(NCC(F)(F)F)C1CCN(c2ccc(S(=O)(=O)C3(C(=O)NO)CCOCC3)cc2)CC1", "CAT": "rule not met"}
{"MOLECULE": "C#CCN1CCC(Oc2ccc(S(=O)(=O)C3(C(=O)NO)CCOCC3)cc2)CC1 [Example 106, Monohydrochloride]", "CAT": "rule not met"}
{"MOLECULE": "Cl.O=C(NO)C1(S(=O)(=O)c2ccc(Sc3ccccc3)cc2)CCN(C2CC2)CC1 [Example 32, Monohydrochloride]", "CAT": "rule met"}
{"MOLECULE": "NCC(=O)Nc1ccc(Sc2ccc(S(=O)(=O)C3(C(=O)NO)CCSCC3)cc2)cc1", "CAT": "rule met"}
{"MOLECULE": "COc1ccc(Oc2ccc(S(=O)(=O)C3(C(=O)NO)CCOCC3)cc2)cc1", "CAT": "rule met"}
{"MOLECULE": "O=C(NO)C1(S(=O)(=O)c2ccc(Sc3ccccc3)cc2)CCNCC1 [Example 86, Monohydrochloride]", "CAT": "rule not met"}
{"MOLECULE": "O=Cc1ccc(-c2ccc(S(=O)(=O)C3(C(=O)NO)CCOCC3)cc2)cc1", "CAT": "rule met"}
{"MOLECULE": "O=C(NO)C1(S(=O)(=O)c2ccc(Oc3cc(F)c(F)cc3F)cc2)CCOCC1", "CAT": "rule not met"}
{"MOLECULE": "CC(C)(C)c1ccc(-c2ccc(S(=O)(=O)C3(C(=O)NO)CCOCC3)cc2)cc1", "CAT": "rule not met"}
{"MOLECULE": "O=C(NO)C1(S(=O)(=O)c2ccc(Oc3ccc(I)cc3)cc2)CCOCC1", "CAT": "rule met"}
{"MOLECULE": "O=C(N1CCCCC1)N1CCN(c2ccc(S(=O)(=O)C3(C(=O)NO)CCOCC3)cc2)CC1", "CAT": "rule not met"}
